All figures here come from patent US20160376333A1.

# TESTED_SYSTEM: human Bcl-2 a.a. 1-207 with C-terminal avi-6his tag (human, UniProt P10415 2-207)
# Sequence (P10415 other isoform, or with tags, fused parts or gaps limits assumed): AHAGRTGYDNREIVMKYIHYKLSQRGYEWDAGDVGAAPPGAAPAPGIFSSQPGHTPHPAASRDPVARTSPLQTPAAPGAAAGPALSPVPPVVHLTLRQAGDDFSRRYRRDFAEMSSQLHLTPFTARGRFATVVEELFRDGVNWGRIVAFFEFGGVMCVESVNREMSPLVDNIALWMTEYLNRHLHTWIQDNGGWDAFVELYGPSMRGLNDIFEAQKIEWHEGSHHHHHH
# TEST_METHOD_NOTES: BLI, biotinylated target on streptavidin sensor, range of analyte concentrations
Assign classes using reported Kd values and the ranges A = under 20 nM, B = from 20 nM up to 4000 nM, C = 4000 nM and over, please.

Field: example entries. Status: answers known.
binder="F-ECM04 (designed binder) ADPKKVLDKAKDQAENRVRELKQKLEELYKEARKLDLTQEMRKKLEVAALGAVLAAHGDILNAIMQAKEEADKLKKAGLVNSQQLDELKRRLEELKEEALRKASDYGKEFHLKRRYG" label_class=B
binder="10-ECM01 (designed binder) ADPKKILDKAKDQVENRVRELKQELERLYKEARKLDLTQEMRRKLHVRYIAAMLKAIAAILNAIAQAENEADKLKKAGLVNSQQLDELRRRLEELTEEAAQKAHDYGREFQLKLEYG" label_class=C
binder="FINDI (designed binder, also called αBFL1) ADPKKVLDKAKDQAENRVRELKQKLEELYKEARKLDLTQEKRKKLEVATLGAVLAAHGDILNAIMQAKEEADKLKKAGLVNSQQLDELKRRLEELKEEALRKASDYGNEFHLKRRY" label_class=B
binder="2-INDI (designed binder, also called αBCL2) ADPKKVLDKAKDEAENRVRELKQRLEELYKEARKLDLTQEMRQELVDKARAASLQANGDIFYAILRALAEAEKLKKAGLVNSQQLDELKRRLEELAEEARRKAEKLRDEFRLKLEY" label_class=A

Req: # bin label for MINDI (Mcl-1-inhibiting design acting intracellularly) (designed binder, also called M-CDP04; αMCL1) ADPKKVLDKAKDQAENRVRELKQVLEELYKEARKLDLTQEMRKKLIERYAAAIIRAIGDINNAIYQAKQEAEKLKKAGLVNSQQLDELLRRLDELQKEASRKANEYGREFELKLEY
Resp: C

Req: Again, but for WINDI (designed binder, also called W-ECM01; αBCLW) DPKKVFDELKDRAENNVRRLKQKLEELYKEARKKDLTQEEREKLKTKYKTAMQLAALAAEGDIMNALLKARKLHKNGQVNEQQLEELARRLMELAKEAFQKAKDYANEFKYKLEY
Resp: C

Req: Next record, please: XINDI (designed binder, also called X-ECM04; αBCLXL) ADPKKVLDKAKDRAENVVRKLKKELEELYKEARKLDLTQEMRDRIRRTAIAARFQAHGDIFHAIKHAKEEARKLKKAGLVNSQQLDELKRRLRELDEEAEQRAEKLGKEFRLKLEY
Resp: B

Req: And the next one, W-CDP03 (designed binder) DPKKVFDEAKDRAENNVRRLKQKLEELYKEARKKDLTQEEREKLKEKYKTAMAAAALAAIGDAFNALLKARKLHKNGQVNEQQLEELARRLQELAKEAFQKAKDYANEFEYKLEY ?
Resp: A

Req: Entry X-CDP07 (designed binder) ADPKKVLDKAKDRAENVVRKLKKELEELYKEARKLDLTQEMRDRIRLAAIAARIAAFGDIFHAIMEALEEARKLKKAGLVNSQQLDELKRRLEELDEEAAQRAEKLGKEFELKLEY please
Resp: A

Req: Please do the same for 10-CDP01 (designed binder, also called B-CDP01) ADPKKVLDKAKDQAENRVRELKQELERLYKEARKLDLTQEMRRKLEWRYIAAMLKAIGDILNAIAQAENEADKLKKAGLVNSQQLDELRRRLEELAKEAARKAHDYGREFQLKLEY as well.
Resp: A
